# TARGET_SYSTEM: Cav2.2 (Homo sapiens)
# Construct: expressed in transfected cells; host or cells: HEK-293T/17 (transient, FuGENE 6)
# PROTOCOL_DETAILS: HEK assay (whole-cell patch clamp, transiently transfected HEK-293T/17 cells, pulses P1 and P5)
# Type: cell-based
# CONDITION: first pulse (P1) of 5 Hz train, holding potential −100 mV, read-out: HEK Cav2.2 P1 IC50
OBSERVED_PROPERTY: IC50 (µM)

Check out these entries, answers already filled in.
Cc1ccc(OCCN(C)c2ccc(CN(C(=O)C(C)(C)C)c3ccc(F)cc3)cn2)nn1 [Compound 40] = 21
CCN(CC)c1ccc(CN(C(=O)CCC(C)C)c2ccc(N)cc2)cc1 [Compound 98] = 5.2

I = CC(C)(C)C(=O)N(Cc1ccc(NC2CC2)nc1)c1ccc(F)cc1 [Compound 78]
II = CN(CCOc1ccccn1)c1ccc(CN(C(=O)C(C)(C)C)c2ccc(F)cc2)cn1 [Compound 29]
III = CCC(C)(C)C(=O)N(Cc1csc(N2CCOCC2)n1)c1ccc(F)cc1 [Compound 73]
IV = CC(C)(C)Nc1ccc(CN(C(=O)C(C)(C)C)c2ccc(F)cc2)cn1 [Compound 67]
Problem: List the 4 entries from lowest IC50 to highest IC50 value. Dear reader, please state the labels in the requested order.
Result: II, IV, I, III

---

# TARGET_SYSTEM: Cav2.2 (Homo sapiens)
# Construct: expressed in transfected cells; host or cells: HEK-293T/17 (transient, FuGENE 6)
# PROTOCOL_DETAILS: HEK assay (whole-cell patch clamp, transiently transfected HEK-293T/17 cells, pulses P1 and P5)
# Format: cell-based
# CONDITION: fifth pulse (P5) of 5 Hz train, holding potential −100 mV, read-out: HEK Cav2.2 P5 IC50
OBSERVED_PROPERTY: IC50 (nM)

CCN(CC)c1nc(CN(C(=O)C(C)(C)C)c2ccc(F)cc2)cs1 = 2400

P = CN(Cc1ccco1)c1ccc(CN(C(=O)C(C)(C)C)c2ccc(F)cc2)cn1
Q = CN(c1ccccn1)c1nc(CN(C(=O)C(C)(C)C)c2ccc(F)cc2)cs1
R = O=C(C1CCOC1)N(Cc1ccc(N2CCN(c3ccccn3)CC2)nc1)c1ccc(F)cc1 (stereo not shown)
Problem: Highest IC50 first, then in falling order down to the smallest. Dear reader, please state the labels in the requested order.
Result: R, P, Q

---

# TARGET_SYSTEM: Cav2.2 (UniProt Q02294)
# PROTOCOL_DETAILS: Oocyte assay (Xenopus oocyte heterologous expression, current at fifth pulse P5)
# CONDITION: Xenopus oocytes; fifth pulse (P5) of 5 Hz train, holding potential −100 mV
Where a name gives a salt, the structure may show the parent alone.
OBSERVED_PROPERTY: IC50 (µM)

CN1CCN(c2ccc(CN(C(=O)C3CC3)c3ccc(F)cc3)cn2)CC1 [Compound 103] = 129

I = CC(C)(C)C(=O)N(Cc1ccc(N2CCC(N3CCOCC3)CC2)nc1)c1ccc(F)cc1 [Compound 33]
II = CN1CCN(c2ccc(CN(C(=O)C3CCCO3)c3ccc(F)cc3)cn2)CC1 (stereo not drawn) [Compound 16, TRIFLUOROACETATE]
Problem: So which one has the bigger IC50 here, I or II ? Refer to your chosen entry by its label in the reply.
Result: II
(II: 86 µM, I: 22.9 µM)

---

# TARGET_SYSTEM: Cav2.2 (Homo sapiens, UniProt Q00975)
# Construct: expressed in transfected cells; host or cells: HEK-293T/17 (transient, FuGENE 6)
# Sequence (Q00975 whole entry): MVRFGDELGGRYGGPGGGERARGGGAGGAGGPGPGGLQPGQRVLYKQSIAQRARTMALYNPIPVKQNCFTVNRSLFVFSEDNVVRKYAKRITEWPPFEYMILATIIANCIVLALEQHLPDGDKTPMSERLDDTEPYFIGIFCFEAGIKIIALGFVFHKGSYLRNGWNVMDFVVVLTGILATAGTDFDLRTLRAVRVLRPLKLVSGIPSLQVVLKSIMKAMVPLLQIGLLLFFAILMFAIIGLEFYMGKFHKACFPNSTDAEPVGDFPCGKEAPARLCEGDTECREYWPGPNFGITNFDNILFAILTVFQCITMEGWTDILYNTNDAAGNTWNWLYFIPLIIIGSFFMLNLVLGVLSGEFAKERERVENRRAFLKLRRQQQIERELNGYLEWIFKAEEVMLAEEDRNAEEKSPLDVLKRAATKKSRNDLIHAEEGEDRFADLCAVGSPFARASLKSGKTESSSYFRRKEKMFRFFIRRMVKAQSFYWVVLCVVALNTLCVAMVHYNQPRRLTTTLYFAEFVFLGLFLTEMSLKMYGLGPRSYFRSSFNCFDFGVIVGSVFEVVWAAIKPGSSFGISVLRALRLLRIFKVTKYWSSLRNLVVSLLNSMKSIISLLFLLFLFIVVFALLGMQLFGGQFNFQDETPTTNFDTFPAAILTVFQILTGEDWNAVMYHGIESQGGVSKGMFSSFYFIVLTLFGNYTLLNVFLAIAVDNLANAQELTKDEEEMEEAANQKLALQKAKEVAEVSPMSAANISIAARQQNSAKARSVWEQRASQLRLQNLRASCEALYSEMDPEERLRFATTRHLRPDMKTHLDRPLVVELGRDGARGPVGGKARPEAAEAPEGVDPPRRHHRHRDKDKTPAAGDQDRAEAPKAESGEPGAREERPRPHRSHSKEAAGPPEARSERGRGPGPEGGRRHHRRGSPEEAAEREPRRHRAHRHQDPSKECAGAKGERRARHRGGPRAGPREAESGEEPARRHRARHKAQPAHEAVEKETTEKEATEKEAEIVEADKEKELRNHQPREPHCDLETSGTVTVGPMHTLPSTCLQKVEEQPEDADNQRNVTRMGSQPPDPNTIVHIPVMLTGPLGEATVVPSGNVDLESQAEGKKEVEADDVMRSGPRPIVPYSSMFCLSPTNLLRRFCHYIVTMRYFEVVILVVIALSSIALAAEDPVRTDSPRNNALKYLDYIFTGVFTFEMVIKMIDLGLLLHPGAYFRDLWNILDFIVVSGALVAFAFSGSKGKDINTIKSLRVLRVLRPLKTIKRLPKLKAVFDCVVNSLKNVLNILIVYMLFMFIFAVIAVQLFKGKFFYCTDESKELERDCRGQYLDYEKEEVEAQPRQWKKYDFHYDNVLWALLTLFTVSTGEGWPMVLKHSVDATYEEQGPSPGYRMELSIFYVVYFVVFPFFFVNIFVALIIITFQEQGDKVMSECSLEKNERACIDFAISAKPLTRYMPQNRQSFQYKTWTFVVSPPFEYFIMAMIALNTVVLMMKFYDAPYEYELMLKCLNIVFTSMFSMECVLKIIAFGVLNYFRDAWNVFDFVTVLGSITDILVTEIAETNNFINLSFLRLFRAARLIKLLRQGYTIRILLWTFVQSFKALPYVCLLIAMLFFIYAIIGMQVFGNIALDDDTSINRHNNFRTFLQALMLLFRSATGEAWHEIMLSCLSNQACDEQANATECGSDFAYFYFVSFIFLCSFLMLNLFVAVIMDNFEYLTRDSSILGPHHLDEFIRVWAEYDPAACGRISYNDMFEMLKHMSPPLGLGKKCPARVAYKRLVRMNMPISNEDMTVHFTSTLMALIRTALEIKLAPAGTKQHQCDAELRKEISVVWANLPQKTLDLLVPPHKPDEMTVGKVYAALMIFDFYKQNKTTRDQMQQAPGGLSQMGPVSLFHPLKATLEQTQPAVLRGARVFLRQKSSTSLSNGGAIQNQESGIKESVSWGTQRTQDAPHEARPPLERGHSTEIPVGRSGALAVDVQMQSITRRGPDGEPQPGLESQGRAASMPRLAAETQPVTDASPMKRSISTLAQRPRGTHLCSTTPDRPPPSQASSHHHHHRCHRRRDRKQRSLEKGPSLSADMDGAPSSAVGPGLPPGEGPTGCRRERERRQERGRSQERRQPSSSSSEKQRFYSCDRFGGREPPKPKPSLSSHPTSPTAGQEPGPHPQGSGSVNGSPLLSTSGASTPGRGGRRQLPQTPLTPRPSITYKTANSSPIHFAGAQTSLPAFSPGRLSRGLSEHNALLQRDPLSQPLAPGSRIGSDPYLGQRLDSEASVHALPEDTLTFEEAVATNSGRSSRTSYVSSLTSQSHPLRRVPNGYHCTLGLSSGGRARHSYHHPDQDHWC
# Sequence (P54284 whole entry partner): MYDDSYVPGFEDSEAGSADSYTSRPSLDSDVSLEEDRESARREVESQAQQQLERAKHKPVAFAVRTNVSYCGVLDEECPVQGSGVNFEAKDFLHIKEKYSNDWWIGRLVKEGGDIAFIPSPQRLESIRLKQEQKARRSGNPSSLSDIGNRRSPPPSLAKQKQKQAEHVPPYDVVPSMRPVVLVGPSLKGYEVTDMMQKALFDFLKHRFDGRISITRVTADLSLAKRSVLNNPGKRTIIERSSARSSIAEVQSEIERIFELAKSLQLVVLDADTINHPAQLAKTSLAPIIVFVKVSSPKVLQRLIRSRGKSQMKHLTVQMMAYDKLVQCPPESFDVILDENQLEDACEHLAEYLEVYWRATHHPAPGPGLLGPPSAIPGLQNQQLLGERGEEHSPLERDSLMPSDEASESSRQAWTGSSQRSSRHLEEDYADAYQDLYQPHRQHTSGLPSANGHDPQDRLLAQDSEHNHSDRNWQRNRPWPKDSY
# Sequence (P54289 25-946 partner limits assumed): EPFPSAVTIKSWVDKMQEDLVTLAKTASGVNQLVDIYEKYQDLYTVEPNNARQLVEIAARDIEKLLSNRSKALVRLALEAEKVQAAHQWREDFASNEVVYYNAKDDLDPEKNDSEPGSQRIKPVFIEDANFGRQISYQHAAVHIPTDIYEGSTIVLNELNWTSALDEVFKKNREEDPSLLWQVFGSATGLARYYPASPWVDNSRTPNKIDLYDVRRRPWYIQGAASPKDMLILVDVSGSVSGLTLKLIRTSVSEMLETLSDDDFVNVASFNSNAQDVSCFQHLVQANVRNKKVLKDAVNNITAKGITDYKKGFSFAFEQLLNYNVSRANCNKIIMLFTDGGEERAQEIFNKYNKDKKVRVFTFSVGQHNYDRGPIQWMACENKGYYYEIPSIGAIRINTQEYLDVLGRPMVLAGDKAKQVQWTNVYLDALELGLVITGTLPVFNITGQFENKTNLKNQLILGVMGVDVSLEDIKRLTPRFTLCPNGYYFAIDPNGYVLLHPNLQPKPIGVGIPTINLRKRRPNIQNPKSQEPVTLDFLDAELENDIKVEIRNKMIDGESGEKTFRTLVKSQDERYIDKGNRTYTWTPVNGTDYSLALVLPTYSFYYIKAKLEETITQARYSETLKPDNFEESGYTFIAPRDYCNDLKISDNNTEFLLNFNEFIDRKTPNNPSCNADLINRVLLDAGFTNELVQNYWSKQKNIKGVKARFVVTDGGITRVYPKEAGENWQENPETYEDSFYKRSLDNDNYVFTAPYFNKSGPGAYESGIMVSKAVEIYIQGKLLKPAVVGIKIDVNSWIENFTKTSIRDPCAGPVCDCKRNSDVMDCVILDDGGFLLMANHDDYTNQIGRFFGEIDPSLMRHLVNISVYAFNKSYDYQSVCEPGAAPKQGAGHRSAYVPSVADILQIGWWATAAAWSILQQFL
# Sequence (P54289 947-1103 partner limits assumed): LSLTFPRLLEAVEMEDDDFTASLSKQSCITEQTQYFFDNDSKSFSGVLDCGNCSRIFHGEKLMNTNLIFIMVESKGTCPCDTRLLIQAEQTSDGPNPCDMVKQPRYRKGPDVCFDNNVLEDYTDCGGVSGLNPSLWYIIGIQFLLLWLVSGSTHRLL
# PROTOCOL_DETAILS: HEK assay (whole-cell patch clamp, transiently transfected HEK-293T/17 cells, pulses P1 and P5)
# Assay type: cell-based
# CONDITION: fifth pulse (P5) of 5 Hz train, holding potential −100 mV, read-out: HEK Cav2.2 P5 IC50
pIC50: −log10 of the molar value. Where a name gives a salt, the structure may show the parent alone.
OBSERVED_PROPERTY: pIC50

Cc1cc(C)cc(N(Cc2ccc(N3CCN(C)CC3)nc2)C(=O)C(C)(C)C)c1 [Compound 32] = 5.59
CCN(CC)c1ncc(CN(C(=O)C(C)(C)C)c2ccc(F)cc2)cn1 [Compound 84] = 5.92
CCN(CC)c1ccc(CN(C(=O)CCC(C)C)c2ccc(N)cc2)cc1 [Compound 98] = 5.72

P = CN1CCCN(c2ccc(CN(C(=O)C(C)(C)C)c3ccc(F)cc3)cn2)CC1 [Compound 22]
Q = CN(C)c1ccc(N(Cc2csc(N3CCCCC3)n2)C(=O)C(C)(C)C)cc1 [Compound 86]
Problem: Record comparison, field pIC50: mark the lower of P and Q . Refer to your chosen entry by its label in the reply.
Result: P
(P: 5.24, Q: 5.51)

A = CCN(c1ccc(CN(C(=O)C2CCN(Cc3ccccc3)CC2)c2ccc(F)cc2)cn1)C1CC1 [Compound 12, dihydrochloride]
B = CC(C)(C)C(=O)N(Cc1ccc(N2CCCC2)nc1)c1ccc(F)cc1 [Compound 42]
Problem: Record comparison, field pIC50: mark the lower of A and B . Refer to your chosen entry by its label in the reply.
Result: B
(B: 5.13, A: 6.40)

---

# TARGET_SYSTEM: Cav2.2 (Homo sapiens)
# Construct: expressed in transfected cells; host or cells: HEK-293T/17 (transient, FuGENE 6)
# PROTOCOL_DETAILS: HEK assay (whole-cell patch clamp, transiently transfected HEK-293T/17 cells, pulses P1 and P5)
# Format: cell-based
# CONDITION: fifth pulse (P5) of 5 Hz train, holding potential −100 mV, read-out: HEK Cav2.2 P5 IC50
pIC50: −log10 of the molar value. Structures can show the parent of a compound that is named as a salt.
OBSERVED_PROPERTY: pIC50

a = COc1ccc(OCc2nc(CN(C(=O)C(C)(C)C)c3ccc(F)cc3)cs2)cc1
b = CCN(CC)c1nc(CN(C(=O)CCC(C)C)c2ccc(N(C)C)cc2)cs1
Problem: So which one has the bigger pIC50 here, a or b ? Refer to your chosen entry by its label in the reply.
Result: a
(a: 5.92, b: 5.64)

A = CC(C)(C)C(=O)N(Cc1cnc(N2CCCCC2)nc1)c1ccc(F)cc1 [Compound 8, hydrochloride]
B = CN(c1ccc(CN(C(=O)C(C)(C)C)c2ccc(F)cc2)cn1)C1CC1
Problem: Record comparison, field pIC50: mark the lower of A and B . Refer to your chosen entry by its label in the reply.
Result: B

P = CN(C)c1ccc(N(Cc2cnc(N3CCCCC3)nc2)C(=O)C(C)(C)C)cc1
Q = CCN(c1cccc(CN(C(=O)C(C)(C)C)c2ccc(F)cc2)n1)C1CC1
Problem: So which one has the bigger pIC50 here, P or Q ? Refer to your chosen entry by its label in the reply.
Result: Q
(Q: 6.10, P: 5.72)

1 = CCN(c1ccc(CN(C(=O)C(C)(C)C)c2ccc(F)cc2)cc1)C1CC1
2 = CC(C)(C)C(=O)N(Cc1ccc(N2CCC(N3CCCC3)CC2)nc1)c1ccc(F)cc1
Problem: Record comparison, field pIC50: mark the lower of 1 and 2 . Refer to your chosen entry by its label in the reply.
Result: 2

---

# TARGET_SYSTEM: Cav2.2 (Homo sapiens, UniProt Q00975)
# Construct: expressed in transfected cells; host or cells: HEK-293T/17 (transient, FuGENE 6)
# PROTOCOL_DETAILS: HEK assay (whole-cell patch clamp, transiently transfected HEK-293T/17 cells, pulses P1 and P5)
# Assay type: cell-based
# CONDITION: first pulse (P1) of 5 Hz train, holding potential −100 mV, read-out: HEK Cav2.2 P1 IC50
pIC50: −log10 of the molar value.
OBSERVED_PROPERTY: pIC50

COc1ccc(N(C)c2nc(CN(C(=O)C(C)(C)C)c3ccc(F)cc3)cs2)cc1 = 5.62

a = CC(C)(C)C(=O)N(Cc1ccc(N2CC[C@@H](Oc3ccccn3)C2)nc1)c1ccc(F)cc1
b = CC(C)(C)C(=O)N(Cc1ccc(NCCc2cccnc2)nc1)c1ccc(F)cc1
c = CN(c1ccc(CN(C(=O)C(C)(C)C)c2ccc(F)cc2)cn1)C1CC1
d = CCN(CC)c1ccc(CN(C(=O)C(C)(C)CC)c2ccc(F)cc2)cn1
e = CN(c1ccc(F)cc1)c1nc(CN(C(=O)C(C)(C)C)c2ccc(F)cc2)cs1
Problem: Highest pIC50 first, then in falling order down to the smallest. Dear reader, please state the labels in the requested order.
Result: e, a, d, c, b

---

# TARGET_SYSTEM: human Cav2.2 (composed of the subunits α1, β3 and α2δ) (Homo sapiens)
# PROTOCOL_DETAILS: FLIPR assay (TSA201 cells stably transfected with human Cav2.2 and human Kir2.3, FLUO-4 Ca2+ signal, KCl depolarization)
# CONDITION: 70 mM KCl depolarization, average value
OBSERVED_PROPERTY: IC50 (µM)

Check out these entries, answers already filled in.
CC(C)(C)C(=O)N(Cc1csc(-c2cccc(C(F)(F)F)c2)n1)c1ccc(F)cc1 [Compound 242] = 5.5
CC(=O)N(Cc1ccc(N2CCCC(CO)C2)nc1)c1ccc(F)cc1 (stereo not drawn) [Compound 234] = 13.9
CCN(CC)c1nc(CN(C(C)=O)c2ccc(F)cc2)cs1 [Compound 219] = 8.7
CC(C)(C)C(=O)N(Cc1csc(N2CCCC(O)C2)n1)c1ccc(F)cc1 (stereo not drawn) [Compound 186] = 5.6
CN(C)CCCCNc1nc(CN(C(=O)C(C)(C)C)c2ccc(F)cc2)cs1 [Compound 155] = 8.5
CC(C)(C)C(=O)N(Cc1csc(N2CCN(CCc3ccccc3)CC2)n1)c1ccc(F)cc1 [Compound 165] = 3.6

a = CC(=O)N(Cc1ccc(N2CCCN(C)CC2)nc1)c1ccc(F)cc1 [Compound 226]
b = CC(C)N1CCN(c2nc(CN(C(=O)C(C)(C)C)c3ccc(F)cc3)cs2)CC1 [Compound 148]
c = CC(C)(C)C(=O)N(Cc1csc(N2CCCC(CO)C2)n1)c1ccc(F)cc1 (stereo not drawn) [Compound 187]
Problem: List the 3 entries from lowest IC50 to highest IC50 value. Dear reader, please state the labels in the requested order.
Result: c, b, a
(c: 3 µM, b: 15.4 µM, a: 26.2 µM)
